B1: glmS ribozyme (parent)
chain: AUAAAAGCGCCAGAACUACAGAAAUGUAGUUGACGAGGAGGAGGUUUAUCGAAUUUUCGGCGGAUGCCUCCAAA

Variants of: B1
Test: self-cleavage kobs at 2500 uM GlcN6P; higher = faster cleavage; RNA array
Conditions: with glucosamine-6-phosphate
This sample holds only a part of the variants without activity.
Listed here are variants together with their documented self-cleavage kobs at 2500 uM GlcN6P.

Using the record for A14C A53G , report its self-cleavage kobs at 2500 uM GlcN6P. 0.0024 s⁻¹

Value source: the supplement of paper PMC7125110
